# measurement_parameters: in acetic acid, 315.15 K
readout_kind: solubility (mole fraction)

Observe how each entry below is paired with its result.
smiles_repr=O=C(O)CCCC(=O)O value_measured=0.31
smiles_repr=O=C(O)CCCCCCCC(=O)O value_measured=0.0923

P. O=C(O)CCCCCC(=O)O
Q. O=C(O)CCCCCCC(=O)O
// max by solubility (mole fraction) over [ P , Q ] Label of pick, please. P
(P: 0.169, Q: 0.0329)

----------
# measurement_parameters: in ethanol, 288.15 K
readout_kind: solubility (mole fraction)

P. O=C(O)CCCCCC(=O)O
Q. O=C(O)CCCC(=O)O
R. O=C(O)CCCCCCC(=O)O
Order by solubility (mole fraction), ascending. Please write the labels in the order that was asked for. R, P, Q

----------
# measurement_parameters: in ethyl acetate, 308.15 K
readout_kind: solubility (mole fraction)

Observe how each entry below is paired with its result.
smiles_repr=O=C(O)CCCC(=O)O readout_kind="solubility (mole fraction)" value_measured=0.146
smiles_repr=O=C(O)CCCCCC(=O)O readout_kind="solubility (mole fraction)" value_measured=0.0802

1. O=C(O)CCCCCCC(=O)O
2. O=C(O)CCCCCCCC(=O)O
// max by solubility (mole fraction) over [ 1 , 2 ] Label of pick, please. 2

----------
# measurement_parameters: in ethanol, 315.15 K
readout_kind: solubility (mole fraction)

a. O=C(O)CCCCCCCC(=O)O
b. O=C(O)CCCCCCC(=O)O
c. O=C(O)CCCCCC(=O)O
d. O=C(O)CCCC(=O)O
Order by solubility (mole fraction), ascending. Please write the labels in the order that was asked for. b, a, c, d

----------
# measurement_parameters: in ethyl acetate, 288.15 K
readout_kind: solubility (mole fraction)

A. O=C(O)CCCCCC(=O)O
B. O=C(O)CCCC(=O)O
C. O=C(O)CCCCCCC(=O)O
D. O=C(O)CCCCCCCC(=O)O
Order by solubility (mole fraction), ascending. Please write the labels in the order that was asked for. C, D, A, B
(C: 0.00238, D: 0.00911, A: 0.0233, B: 0.0861)

----------
# measurement_parameters: in ethyl acetate, 303.15 K
readout_kind: solubility (mole fraction)

smiles_repr=O=C(O)CCCCCCCC(=O)O readout_kind="solubility (mole fraction)" value_measured=0.0232

A. O=C(O)CCCC(=O)O
B. O=C(O)CCCCCCC(=O)O
C. O=C(O)CCCCCC(=O)O
Give the ascending ranking of the items by reported solubility (mole fraction). Please write the labels in the order that was asked for. B, C, A

----------
# measurement_parameters: in acetic acid, 298.15 K
readout_kind: solubility (mole fraction)

smiles_repr=O=C(O)CCCCCC(=O)O readout_kind="solubility (mole fraction)" value_measured=0.0964

a. O=C(O)CCCC(=O)O
b. O=C(O)CCCCCCC(=O)O
Lowest solubility (mole fraction)? choose a or b Label of pick, please. b
(b: 0.0176, a: 0.221)

----------
# measurement_parameters: in ethyl acetate, 298.15 K
readout_kind: solubility (mole fraction)

smiles_repr=O=C(O)CCCCCCC(=O)O readout_kind="solubility (mole fraction)" value_measured=0.00389

a. O=C(O)CCCCCCCC(=O)O
b. O=C(O)CCCC(=O)O
c. O=C(O)CCCCCC(=O)O
Order the records so the highest solubility (mole fraction) appears first and the lowest last. Please write the labels in the order that was asked for. b, c, a
(b: 0.123, c: 0.0517, a: 0.0162)
